SYSTEM_TESTED: unphosphorylated-BTK kinase domain (UP-BTK), GST-tagged human BTK (389-659aa) (Homo sapiens (Human))
Sequence (Q06187 389-659): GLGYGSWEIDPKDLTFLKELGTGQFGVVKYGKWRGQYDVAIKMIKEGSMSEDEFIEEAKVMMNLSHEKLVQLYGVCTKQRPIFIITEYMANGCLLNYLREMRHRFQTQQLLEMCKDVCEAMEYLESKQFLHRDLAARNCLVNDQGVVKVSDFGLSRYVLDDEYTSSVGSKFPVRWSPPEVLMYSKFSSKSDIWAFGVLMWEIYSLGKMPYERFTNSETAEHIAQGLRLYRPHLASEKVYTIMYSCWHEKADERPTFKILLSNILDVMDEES
METHOD_DESCRIPTION: BTK kinase Lanthascreen binding assay
STUDY_CONDITIONS: unphosphorylated-BTK kinase domain, 50 nM Tracer 236, 60 minutes; pIC50 = negative log of the IC50 in molar
MEASURED_PARAMETER: BTK_I_binding pIC50

INSERT INTO results (chemical_structure, obs_value) VALUES
  ('Cc1cc(Oc2ccccc2)ccc1N1C(=O)Nc2c(C(=O)N[C@@H]3CCN(C(=O)CN)C3)sc3nccc1c23', 7.4),
  ('C=CC(=O)N1CCC[C@@H](NC(=O)c2sc3nccc4c3c2NC(=O)N4c2cccc(C(F)(F)F)c2)C1', 6.2),
  ('C=CC(=O)N1CCC[C@@H](NC(=O)c2sc3nccc4c3c2NC(=O)N4c2cccc(C3CCCCC3)c2)C1', 7.3),
  ('C=CC(=O)N1CCC[C@@H](NC(=O)c2sc3nccc4c3c2NC(=O)N4c2cccc(OC(C)C)c2)C1', 7.0);
